# System: FXR:RXRa (NR concentration 270 nM, RXRa partner concentration 90 nM)
# procedure-text: PBM binding z-score (relative to random genomic background probes); higher = stronger binding; sequences stand for … in GC…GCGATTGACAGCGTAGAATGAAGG
Given measured PBM binding z-score, output fulfilled if it is greater than or equal to 1 and not fulfilled if not.

primary-sequence: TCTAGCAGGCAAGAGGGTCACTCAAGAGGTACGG
class-name: not fulfilled
--
primary-sequence: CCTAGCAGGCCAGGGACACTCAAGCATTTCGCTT
class-name: not fulfilled
--
primary-sequence: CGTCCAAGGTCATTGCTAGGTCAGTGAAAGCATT
class-name: fulfilled
--
primary-sequence: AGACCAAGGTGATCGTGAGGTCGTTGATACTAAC
class-name: fulfilled
--
primary-sequence: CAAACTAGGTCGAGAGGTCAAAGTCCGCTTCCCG
class-name: fulfilled
--
primary-sequence: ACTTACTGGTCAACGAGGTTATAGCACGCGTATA
class-name: fulfilled
--
primary-sequence: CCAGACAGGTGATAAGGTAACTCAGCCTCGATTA
class-name: not fulfilled
--
primary-sequence: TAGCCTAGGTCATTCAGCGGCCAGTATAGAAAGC
class-name: fulfilled
--
primary-sequence: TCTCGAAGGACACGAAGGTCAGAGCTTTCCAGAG
class-name: fulfilled
--
primary-sequence: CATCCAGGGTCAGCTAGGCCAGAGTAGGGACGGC
class-name: fulfilled
--
primary-sequence: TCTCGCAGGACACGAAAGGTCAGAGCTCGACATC
class-name: fulfilled
--
primary-sequence: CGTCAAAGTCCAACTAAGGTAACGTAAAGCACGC
class-name: not fulfilled
